assay: yeast display, Sf9 membrane polyspecificity reagent, FACS + sequencing; frameworks hold sequencing errors
readout: polyreactivity (PSR sort gate)

sequence_string=QVQLVESGGGLVQAGGSLRLSCAASGFTFYWYAMGWYRQAPGKEREFVAAIDQSGGSTYYADSVKGRFTISRDNAKNTVYLQMNSLKPEDTAVYYCAKLYTIGYDYWGQGTQVTVSS readout="polyreactivity (PSR sort gate)" assay_result="low polyreactivity"
sequence_string=QVQLVESGGGLVQAGGSLRLSCAASGFTFDQYTMGWYRQAPGKERELVAAISSSGGSTYYADSVKGRFTISRDNAKNTVYLQMNSLKPEDTAVYYCAARFLLTQRVSHDYRGQGTQVTVSS readout="polyreactivity (PSR sort gate)" assay_result="low polyreactivity"
sequence_string=QVQLVESGGGLVQAGGSLRLSCAASGSTFEDYPLGWYRQAPGKERELVAAISHIGGSTYYADSVKGRFTISRDNAKNTVYLQMNSLKPEDTAVYYCAKGGFSSKFDYWGQGTQVTVSS readout="polyreactivity (PSR sort gate)" assay_result="low polyreactivity"
